Biological target: human TLR4 (Homo sapiens, UniProt O00206+Q9Y6Y9)
Sequence (O00206 24-839): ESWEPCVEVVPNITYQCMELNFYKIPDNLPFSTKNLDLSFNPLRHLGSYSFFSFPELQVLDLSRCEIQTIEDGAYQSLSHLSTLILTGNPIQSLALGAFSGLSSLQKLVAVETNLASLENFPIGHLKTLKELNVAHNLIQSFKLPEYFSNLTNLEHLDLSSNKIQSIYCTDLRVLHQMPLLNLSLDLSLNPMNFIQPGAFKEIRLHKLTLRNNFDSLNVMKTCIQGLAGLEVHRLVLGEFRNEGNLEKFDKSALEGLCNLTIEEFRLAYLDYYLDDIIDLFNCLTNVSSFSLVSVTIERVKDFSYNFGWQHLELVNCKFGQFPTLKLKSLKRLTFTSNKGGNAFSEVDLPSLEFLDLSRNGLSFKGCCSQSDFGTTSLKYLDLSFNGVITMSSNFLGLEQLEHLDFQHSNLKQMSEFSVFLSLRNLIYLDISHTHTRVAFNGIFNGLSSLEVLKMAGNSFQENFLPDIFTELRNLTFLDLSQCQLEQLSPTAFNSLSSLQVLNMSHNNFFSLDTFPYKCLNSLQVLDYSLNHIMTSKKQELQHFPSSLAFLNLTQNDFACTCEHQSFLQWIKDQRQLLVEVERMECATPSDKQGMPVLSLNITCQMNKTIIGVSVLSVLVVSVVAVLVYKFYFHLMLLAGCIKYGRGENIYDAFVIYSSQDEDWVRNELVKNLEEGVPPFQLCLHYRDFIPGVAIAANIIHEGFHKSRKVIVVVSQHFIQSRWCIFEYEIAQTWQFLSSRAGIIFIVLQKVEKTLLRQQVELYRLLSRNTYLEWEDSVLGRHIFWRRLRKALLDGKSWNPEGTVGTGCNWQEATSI
Sequence (Q9Y6Y9 17-160 limits assumed): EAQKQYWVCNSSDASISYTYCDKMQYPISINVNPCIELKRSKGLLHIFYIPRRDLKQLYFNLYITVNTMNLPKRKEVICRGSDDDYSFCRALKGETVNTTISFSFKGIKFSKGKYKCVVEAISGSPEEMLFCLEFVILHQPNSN
Experiment: Human TLR4 activating effect (HEK-Blue Human TLR4 Cells, SEAP reporter)
Assay type: cell-based
Conditions: 24 hours, SEAP Protein concentration, read-out: EC50 (ng/ml) (converted)
Protocol: The human TLR4 activating effect was studied using the compounds described in Examples 1 to 17 and monophosphoryl lipid A as Comparative Example A. Triethanolamine was dissolved at 0.5% (v/v) in injectable distilled water to prepare an aqueous triethanolamine solution. 1 mg of each test drug was dissolved in 0.98 mL of the aqueous triethanolamine solution, and pH of the solution was then adjusted to 7.2 to 7.4 by the addition of 20 μL of 1 M HCl to prepare a 1 mg/mL solution. […]
Attribute: EC50
Write down the numeric answer in nM and omit the unit.

{"columns": ["molecule", "subject_of_test", "recorded_measurement"],
 "data": [
  ["CCCCCCCCCCC[C@H](CC(=O)NC1C(OC[C@H](NC(=O)C[C@@H](CCCCCCCCCCC)OC(=O)CCCCCCCCC)C(=O)O)OC(COC2(C(=O)O)CC(OC3(C(=O)O)CC(O)C(O)C([C@H](O)CO)O3)C(O)C([C@H](O)CO)O2)C(OP(=O)(O)O)C1OC(=O)C[C@@H](CCCCCCCCCCC)OC(=O)CCCCCCCCC)OC(=O)CCCCCCCCC (stereo partly drawn)", "human TLR4 (Homo sapiens, UniProt O00206+Q9Y6Y9)", 0.187]
]}

Request: Specify EC50 for CCCCCCCCCCC[C@H](CC(=O)NC1C(CC[C@H](NC(=O)C[C@@H](CCCCCCCCCCC)OC(=O)CCCCCCCCC)C(=O)O)OC(CF)C(OP(=O)(O)O)C1OC(=O)C[C@@H](CCCCCCCCCCC)OC(=O)CCCCCCCCC)OC(=O)CCCCCCCCC (stereo partly drawn) [Example 16(16b)] and stop.
Result: 1.01

Request: Specify EC50 for CCCCCCCCCCC[C@H](CC(=O)NC1C(CC[C@@H](CC(=O)O)NC(=O)C[C@@H](CCCCCCCCCCC)OC(=O)CCCCCCCCC)OC(COC2(C(=O)O)CC(O)C(O)C([C@H](O)CO)O2)C(OP(=O)(O)O)C1OC(=O)C[C@@H](CCCCCCCCCCC)OC(=O)CCCCCCCCC)OC(=O)CCCCCCCCC (stereo partly drawn) [Example 11(11d)] and stop.
Result: 0.291

---

Target: human TLR4 (Homo sapiens, UniProt O00206+Q9Y6Y9)
Assay: Human TLR4 activating effect (HEK-Blue Human TLR4 Cells, SEAP reporter)
Type: cell-based
Conditions: 24 hours, SEAP Protein concentration, read-out: EC50 (ng/ml) (converted)
Method: The human TLR4 activating effect was studied using the compounds described in Examples 1 to 17 and monophosphoryl lipid A as Comparative Example A. Triethanolamine was dissolved at 0.5% (v/v) in injectable distilled water to prepare an aqueous triethanolamine solution. 1 mg of each test drug was dissolved in 0.98 mL of the aqueous triethanolamine solution, and pH of the solution was then adjusted to 7.2 to 7.4 by the addition of 20 μL of 1 M HCl to prepare a 1 mg/mL solution. […]
Attribute: EC50
Write down the numeric answer in nM and omit the unit.

{"columns": ["compound", "parameter", "recorded_measurement"],
 "data": [
  ["CCCCCCCCCCC[C@H](CC(=O)N[C@H]1[C@H](OC[C@H](NC(=O)C[C@@H](CCCCCCCCCCC)OC(=O)CCCCCCCCC)C(=O)O)O[C@H](CO[C@@H]2O[C@H](CO)[C@@H](OP(=O)(O)O)[C@H](O)[C@H]2NC(C)=O)[C@@H](OP(=O)(O)O)[C@@H]1OC(=O)C[C@@H](CCCCCCCCCCC)OC(=O)CCCCCCCCC)OC(=O)CCCCCCCCC", "EC50", 0.35],
  ["CCCCCCCCCCC[C@H](CC(=O)NC1C(OC[C@H](NC(=O)C[C@@H](CCCCCCCCCCC)OC(=O)CCCCCCCCC)C(=O)O)OC(COC2OC(C(=O)O)C(O)C(O)C2O)C(OP(=O)(O)O)C1OC(=O)C[C@@H](CCCCCCCCCCC)OC(=O)CCCCCCCCC)OC(=O)CCCCCCCCC (stereo partly shown)", "EC50", 0.0661],
  ["CCCCCCCCCCC[C@H](CC(=O)NC1C(CC[C@@H](CC(=O)O)NC(=O)C[C@@H](CCCCCCCCCCC)OC(=O)CCCCCCCCC)OC(CO)C(OP(=O)(O)O)C1OC(=O)C[C@@H](CCCCCCCCCCC)OC(=O)CCCCCCCCC)OC(=O)CCCCCCCCC (stereo partly shown) [Example 10(10r)]", "EC50", 0.667]
]}

# evaluate next
Request: Specify EC50 for CCCCCCCCCCC[C@H](CC(=O)N[C@@H](CO[C@@H]1O[C@H](CO)[C@@H](OP(=O)(O)O)[C@H](OC(=O)C[C@@H](CCCCCCCCCCC)OC(=O)CCCCCCCCC)[C@H]1NC(=O)C[C@@H](CCCCCCCCCCC)OC(=O)CCCCCCCCC)CC(=O)O)OC(=O)CCCCCCCCC and stop.
Result: 0.612
